system: Candida albicans; test: Compound was tested for the inhibition of delta24-sterol Methyl transferase
EXPERIMENTAL READOUT: Kis (µM)

[
  {
    "COMPOUND": "CC(C)[S+]([O-])CC[C@@H](C)C1CCC2C3CC=C4C[C@@H](O)CC[C@]4(C)C3CC[C@@]21C (stereo partly drawn)",
    "VAL": 20
  },
  {
    "COMPOUND": "C[C@H](CCC(N)=[N+](C)C)C1CC[C@@]2(C)C3=C(CC[C@]12C)[C@@]1(C)CC[C@H](O)C(C)(C)C1CC3 (stereo partly drawn)",
    "VAL": 0.006
  },
  {
    "COMPOUND": "CC[S+](CC[C@@H](C)C1CCC2C3CC=C4C[C@@H](O)CC[C@]4(C)C3CC[C@@]21C)C(C)C.[I-] (stereo partly drawn)",
    "VAL": 0.5
  }
]
